Taken from ChEMBL document CHEMBL1145336.

# Measured on: D(4) dopamine receptor (Homo sapiens)
# Sequence (P21917 whole entry): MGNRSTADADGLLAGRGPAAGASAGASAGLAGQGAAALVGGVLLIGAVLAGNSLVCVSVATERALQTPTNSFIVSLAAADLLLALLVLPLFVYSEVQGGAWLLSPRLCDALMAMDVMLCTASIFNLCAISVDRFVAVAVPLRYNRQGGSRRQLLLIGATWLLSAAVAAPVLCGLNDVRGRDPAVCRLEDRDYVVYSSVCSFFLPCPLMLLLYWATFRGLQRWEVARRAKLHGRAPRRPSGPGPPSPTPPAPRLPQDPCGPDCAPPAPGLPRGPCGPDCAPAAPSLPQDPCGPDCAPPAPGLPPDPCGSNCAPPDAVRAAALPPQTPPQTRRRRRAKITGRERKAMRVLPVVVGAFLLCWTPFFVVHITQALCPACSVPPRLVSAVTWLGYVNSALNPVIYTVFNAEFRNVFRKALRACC
# Protocol description: Activity at human recombinant D4.4 receptor expressed in HEK293 cells by FLIPR assay
pEC50: −log10 of the molar value.
Short version: pEC50 at least 7 is Criterion met, less is Criterion not met.

Examples from the recorded data:
[[record]]
compound = "N#CCO/N=C(\\CCN1CCN(c2ccccn2)CC1)c1ccccc1"
classification = "Criterion met"

[[record]]
compound = "CCO/N=C(\\CCN1CCN(c2cccc(OC)c2)CC1)c1ccccc1"
classification = "Criterion not met"

[[record]]
compound = "CCO/N=C(/CCN1CCN(c2ccccn2)CC1)c1ccccc1"
classification = "Criterion met"

[[record]]
compound = "CO/N=C(\\CCN1CCC(c2ccccn2)CC1)c1ccc(Cl)cc1"
classification = "Criterion not met"

[[record]]
compound = "Cc1cccc(/C(=N/O)C(O)CN2CCN(c3ccccn3)CC2)c1 (stereo not given)"
classification = "Criterion met"

[[record]]
compound = "CO/N=C(\\c1ccc(Cl)cc1)C(O)CN1CCN(c2ccccn2)CC1 (stereo not given)"
classification = "Criterion met"

[[record]]
compound = "CO/N=C(/c1ccc(Cl)cc1)C(O)CN1CCN(c2ccccn2)CC1 (stereo not given)"
classification = "Criterion met"

[[record]]
compound = "Cc1ccc(O)c(/C(CCN2CCN(c3ccccn3)CC2)=N/O)c1"
classification = "Criterion met"

[[record]]
compound = "Cc1ccccc1/C(CCN1CCN(c2ccccn2)CC1)=N\\O"
classification = "Criterion met"

[[record]]
compound = "CO/N=C(/c1ccc(Cl)cc1)C(COC(C)C)CN1CCN(c2ccccn2)CC1 (stereo not given)"
classification = "Criterion not met"


Is pEC50 for CO/N=C(/CCN1CCC(c2ccccn2)CC1)c1ccc(Cl)cc1 at or above 7?
Criterion not met

State whether the measured pEC50 reaches 7, counting equality as reaching it, for CCO/N=C(\CCN1CCN(c2ccccc2OC)CC1)c1ccccc1
Criterion not met

Evaluate O/N=C(\CCN1CCN(c2nccs2)CC1)c1ccccc1 : pEC50 at minimum 7?
Criterion met
